Assay: Solubility in 0.01 M sodium phosphate buffer at pH = 7.4
Assay type: physicochemical
property: solubility (µg/mL)
Write the value in µg/mL as a bare number.

CC(C)C(NC(=O)Cn1c(-c2ccccc2)cc2c(=O)n(N(C)C)c(=O)[nH]c2c1=O)C(=O)C(F)(F)F (stereo not drawn) ... 320
CC(C)C(NC(=O)Cn1ccc2c(=O)n(Cc3ccccc3)c(=O)[nH]c2c1=O)C(=O)C(F)(F)F (stereo not drawn) ... 730
CC(C)C(NC(=O)Cn1c(-c2ccccc2)cc2c(=O)n(C)c(=O)[nH]c2c1=O)C(=O)C(F)(F)F (stereo not drawn) ... 44
CCOCCn1c(=O)[nH]c2c(=O)n(CC(=O)NC(C(=O)C(F)(F)F)C(C)C)c(-c3ccccc3)cc2c1=O (stereo not drawn) ... 8
CC(C)C(NC(=O)Cn1cccc(NC(=O)OCc2ccccc2)c1=O)C(=O)C(F)(F)F (stereo not drawn) ... 110
COc1ccc(Cn2c(=O)[nH]c3c(=O)n(CC(=O)NC(C(=O)C(F)(F)F)C(C)C)c(-c4ccccc4)cc3c2=O)cc1 (stereo not drawn) ... 230

Query compound follows.
Which value of solubility has been reported for CC(C)C(NC(=O)Cn1c(-c2ccccc2)cc2c(O)nc(O)nc2c1=O)C(=O)C(F)(F)F (stereo not drawn) in the records?
220

###

Experiment: Solubility in 0.01 M sodium phosphate buffer at pH = 7.4
Format: physicochemical
Here the recorded solubility is given for each entry.
Write the number in µg/mL without appending the unit.

CC(C)[C@@H](NC(=O)Cn1c(-c2ccccc2)cc2c(=O)n(CC(N)=O)c(=O)[nH]c2c1=O)C(=O)C(F)(F)F ... 130
CNC(=O)Cn1c(=O)[nH]c2c(=O)n(CC(=O)NC(C(=O)C(F)(F)F)C(C)C)c(-c3ccccc3)cc2c1=O (centres undefined) ... 100
CC(C)C(NC(=O)Cn1c(-c2ccccc2)cc2c(=O)n(CCN3CCOCC3)c(=O)[nH]c2c1=O)C(=O)C(F)(F)F (centres undefined) ... 300

Requested read-out: solubility. Entry: COC(Cn1c(=O)[nH]c2c(=O)n(CC(=O)NC(C(=O)C(F)(F)F)C(C)C)c(-c3ccccc3)cc2c1=O)OC (centres undefined)
420

###

Target: Neutrophil elastase (Homo sapiens)
Sequence (P08246 whole entry): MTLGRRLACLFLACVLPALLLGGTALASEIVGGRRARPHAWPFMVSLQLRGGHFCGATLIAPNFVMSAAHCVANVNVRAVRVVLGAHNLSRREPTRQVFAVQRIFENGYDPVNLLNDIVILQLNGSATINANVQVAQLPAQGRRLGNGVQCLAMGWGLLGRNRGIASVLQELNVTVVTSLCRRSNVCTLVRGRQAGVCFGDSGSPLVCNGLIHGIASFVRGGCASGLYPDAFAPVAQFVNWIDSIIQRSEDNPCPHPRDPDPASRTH
Assay: Inhibition of Human Neutrophil Elastase-catalyzed hydrolysis of the synthetic substrate MeO-Suc-Ala-Ala-Pro-Val-p- nitroanilide.
property: log10 of Ki (log10 of the value in nM)
Parameter value (number): base-10 log of Ki in nM.

Which log10 of Ki value is on record for CC(C)C(NC(=O)Cn1c(-c2ccccc2)cc2c(O)nc(O)nc2c1=O)C(=O)C(F)(F)F (stereo not drawn) ?
1.18

# iterate: COc1ccc(Cn2c(=O)[nH]c3c(=O)n(CC(=O)NC(C(=O)C(F)(F)F)C(C)C)ccc3c2=O)cc1 (stereo not drawn)
2.00

Same read-out for CC(C)C(NC(=O)Cn1ccc2c(=O)n(Cc3cccc4ccccc34)c(=O)[nH]c2c1=O)C(=O)C(F)(F)F (stereo not drawn) ?
1.41

And for CC(C)C(NC(=O)Cn1c(-c2ccccc2)cc2c(=O)n(N(C)C)c(=O)[nH]c2c1=O)C(=O)C(F)(F)F (stereo not drawn) ?
1.28

What do you get for CC(C)C(NC(=O)Cn1ccc2c(=O)n(Cc3ccccc3)c(=O)[nH]c2c1=O)C(=O)C(F)(F)F (stereo not drawn) ?
2.20

###

Biological target: Neutrophil elastase (Homo sapiens, UniProt P08246)
Sequence (P08246 whole entry): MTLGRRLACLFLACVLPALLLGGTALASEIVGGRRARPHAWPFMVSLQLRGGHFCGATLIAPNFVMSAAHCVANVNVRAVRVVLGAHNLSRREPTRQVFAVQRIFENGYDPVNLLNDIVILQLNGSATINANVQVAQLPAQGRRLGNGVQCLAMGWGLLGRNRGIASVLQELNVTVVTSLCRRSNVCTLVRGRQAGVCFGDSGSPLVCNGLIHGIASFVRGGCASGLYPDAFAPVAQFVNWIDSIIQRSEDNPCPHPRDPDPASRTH
Test: Inhibition of Human Neutrophil Elastase-catalyzed hydrolysis of the synthetic substrate MeO-Suc-Ala-Ala-Pro-Val-p- nitroanilide.
property: Ki (nM)
Response body: numeric value in nM, unit text excluded.

Use the examples below as a reference point.
CC(C)C(NC(=O)Cn1ccc2c(=O)n(-c3ccccc3)c(=O)[nH]c2c1=O)C(=O)C(F)(F)F (stereo unspecified) ... 830
CNC(=O)Cn1c(=O)[nH]c2c(=O)n(CC(=O)NC(C(=O)C(F)(F)F)C(C)C)c(-c3ccccc3)cc2c1=O (stereo unspecified) ... 22
COC(=O)Cn1c(=O)[nH]c2c(=O)n(CC(=O)N[C@@H](C(=O)C(F)(F)F)C(C)C)ccc2c1=O ... 490

# get_value(readout='Ki', item= CC(C)C(NC(=O)Cn1c(-c2ccccc2)cc2c(=O)n(C)c(=O)[nH]c2c1=O)C(=O)C(F)(F)F (stereo unspecified) )
10

Can you check CC(C)C(NC(=O)Cn1c(-c2ccccc2)cc2c(=O)n(CCN3CCOCC3)c(=O)[nH]c2c1=O)C(=O)C(F)(F)F (stereo unspecified) next?
8.4

###

Biological target: Neutrophil elastase (Homo sapiens, UniProt P08246)
Experiment: Inhibition of Human Neutrophil Elastase-catalyzed hydrolysis of the synthetic substrate MeO-Suc-Ala-Ala-Pro-Val-p- nitroanilide.
pKi: −log10 of the molar value.
Outcome: criterion met for pKi of at least 7; criterion not met for anything lower.

Solved cases (5 shown):
CC(C)[C@@H](NC(=O)Cn1c(-c2ccccc2)cc2c(=O)n(CC(N)=O)c(=O)[nH]c2c1=O)C(=O)C(F)(F)F ... criterion met
CC(C)[C@@H](NC(=O)Cn1ccc2c(=O)n(CC(=O)OC(C)(C)C)c(=O)[nH]c2c1=O)C(=O)C(F)(F)F ... criterion not met
COC(Cn1c(=O)[nH]c2c(=O)n(CC(=O)NC(C(=O)C(F)(F)F)C(C)C)c(-c3ccccc3)cc2c1=O)OC (stereo not drawn) ... criterion met
CC(C)C(NC(=O)Cn1ccc2c(=O)n([C@H]3C[C@@H]3c3ccccc3)c(=O)[nH]c2c1=O)C(=O)C(F)(F)F (stereo partly drawn) ... criterion not met
CC(C)[C@@H](NC(=O)Cn1ccc2c(=O)n(CC(=O)O)c(=O)[nH]c2c1=O)C(=O)C(F)(F)F ... criterion not met

Hi, just wondering whether CC(C)C(NC(=O)Cn1ccc2c(=O)n(CCc3ccccc3)c(=O)[nH]c2c1=O)C(=O)C(F)(F)F (stereo not drawn) shows pKi of 7 or higher.
criterion met

Next record, please: CC(C)C(NC(=O)Cn1ccc2c(=O)n(CCc3cccc4ccccc34)c(=O)[nH]c2c1=O)C(=O)C(F)(F)F (stereo not drawn)
criterion met

What do you have for CC(C)C(NC(=O)Cn1ccc2c(=O)n(C(C)(C)Cc3ccccc3)c(=O)[nH]c2c1=O)C(=O)C(F)(F)F (stereo not drawn) ?
criterion met

###

Molecular target: Neutrophil elastase (Homo sapiens, UniProt P08246)
Sequence (P08246 whole entry): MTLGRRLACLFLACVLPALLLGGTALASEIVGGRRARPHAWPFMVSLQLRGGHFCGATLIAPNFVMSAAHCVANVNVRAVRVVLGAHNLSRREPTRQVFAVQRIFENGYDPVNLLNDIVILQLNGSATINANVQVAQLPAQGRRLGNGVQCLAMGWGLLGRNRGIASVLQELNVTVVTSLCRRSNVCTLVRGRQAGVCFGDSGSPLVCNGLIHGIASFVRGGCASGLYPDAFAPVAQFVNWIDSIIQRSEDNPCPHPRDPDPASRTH
Test: Inhibition of Human Neutrophil Elastase-catalyzed hydrolysis of the synthetic substrate MeO-Suc-Ala-Ala-Pro-Val-p- nitroanilide.
property: pKi
Here pKi is given on a logarithmic scale as minus log10 of the concentration in mol/L.

Some solved cases for reference:
CC(C)C(NC(=O)Cn1ccc2c(=O)n(CC(=O)c3ccccc3)c(=O)[nH]c2c1=O)C(=O)C(F)(F)F (stereo not drawn) ... 7.13
CC(=O)Cn1c(=O)[nH]c2c(=O)n(CC(=O)NC(C(=O)C(F)(F)F)C(C)C)ccc2c1=O (stereo not drawn) ... 6.51

# evaluate next
Given COc1ccc(Cn2c(=O)[nH]c3c(=O)n(CC(=O)NC(C(=O)C(F)(F)F)C(C)C)c(-c4ccccc4)cc3c2=O)cc1 (stereo not drawn) , state its recorded pKi.
8.24
